We begin with a simple list: items and their reported RUNX1 binding intensity.
target: RUNX1 (UniProt Q01196); assay: RUNX1 binding intensity (PBM fluorescence) in presence of ETS1, normalised to RUNX1-only experiment (arbitrary fluorescence units); higher = stronger binding; conditions: RUNX1 concentration 2 nM; ETS1 concentration 25 nM;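 note: Full-length recombinant human ETS1 or RUNX1 bound to double-stranded 36-bp genomic probes on microarrays, detected by protein-specific primary antibody and Alexa488 secondary, spot fluorescence as median of four replicate spots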
Sequence (Q01196 whole entry): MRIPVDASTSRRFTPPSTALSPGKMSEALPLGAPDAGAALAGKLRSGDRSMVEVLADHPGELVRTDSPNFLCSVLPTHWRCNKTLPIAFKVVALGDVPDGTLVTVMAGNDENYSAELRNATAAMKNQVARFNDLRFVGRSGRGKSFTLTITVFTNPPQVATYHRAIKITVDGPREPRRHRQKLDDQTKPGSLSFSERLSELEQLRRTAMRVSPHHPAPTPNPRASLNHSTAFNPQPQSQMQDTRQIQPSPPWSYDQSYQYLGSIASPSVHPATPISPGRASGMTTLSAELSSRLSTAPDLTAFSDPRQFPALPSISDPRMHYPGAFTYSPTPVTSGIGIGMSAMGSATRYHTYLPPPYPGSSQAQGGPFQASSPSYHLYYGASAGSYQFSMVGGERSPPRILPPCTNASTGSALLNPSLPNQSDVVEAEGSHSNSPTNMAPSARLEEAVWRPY

[
  {
    "chain": "GACATATCCTGCATTCTCAGAAAAACCACAGGCTAG",
    "system-under-test": "RUNX1 (UniProt Q01196)",
    "RUNX1 binding intensity": 2000
  },
  {
    "chain": "CTCCGATTGAGAACAGGAAGCCACAGGCCAATACAA",
    "system-under-test": "RUNX1 (UniProt Q01196)",
    "RUNX1 binding intensity": 931
  },
  {
    "chain": "AGGGCATTTCCTTTGGGGCTGGTGGTCACGGACAAC",
    "system-under-test": "RUNX1 (UniProt Q01196)",
    "RUNX1 binding intensity": 1430
  },
  {
    "chain": "TGCGCCGGGAGGAAGGGCTCCAAAACCACAGGGCGG",
    "system-under-test": "RUNX1 (UniProt Q01196)",
    "RUNX1 binding intensity": 927
  },
  {
    "chain": "TAAGGATGTGTGGCTTCCAGATCAAAAACCGCAAAA",
    "system-under-test": "RUNX1 (UniProt Q01196)",
    "RUNX1 binding intensity": 10600
  },
  {
    "chain": "GAGTGACTGCTAACGGATGTGTGGTTTCTTTAGTTT",
    "system-under-test": "RUNX1 (UniProt Q01196)",
    "RUNX1 binding intensity": 1470
  },
  {
    "chain": "CCTCACAGGGACTTCCTTCCCCGCGGTTCAGGAATC",
    "system-under-test": "RUNX1 (UniProt Q01196)",
    "RUNX1 binding intensity": 1100
  },
  {
    "chain": "TCACATTTTGCCGGATGTGGGTTGAGGGCATGCTGC",
    "system-under-test": "RUNX1 (UniProt Q01196)",
    "RUNX1 binding intensity": 8730
  },
  {
    "chain": "GCCGGTGAGGGCGGAAGTGGTAAGACTGACGTGTCC",
    "system-under-test": "RUNX1 (UniProt Q01196)",
    "RUNX1 binding intensity": 2490
  },
  {
    "chain": "ACTGAACAAACCGGATGTGGTTGCCACCTGCAATCT",
    "system-under-test": "RUNX1 (UniProt Q01196)",
    "RUNX1 binding intensity": 21800
  },
  {
    "chain": "TGACTTCCTCCTCTTCACTAACAGAAACCTCAATTT",
    "system-under-test": "RUNX1 (UniProt Q01196)",
    "RUNX1 binding intensity": 2570
  },
  {
    "chain": "CCACTGCCGGAAGGGGAACTGTGGGGGTGCGCGAGT",
    "system-under-test": "RUNX1 (UniProt Q01196)",
    "RUNX1 binding intensity": 1040
  },
  {
    "chain": "AAGAGGAAGTCCCAAATTGCTTTTTAACCACCAACA",
    "system-under-test": "RUNX1 (UniProt Q01196)",
    "RUNX1 binding intensity": 888
  },
  {
    "chain": "GGGCAGGGCATTTCCTTTGTGGCTGGTGCTCACGGA",
    "system-under-test": "RUNX1 (UniProt Q01196)",
    "RUNX1 binding intensity": 1360
  },
  {
    "chain": "CAACTTCCGGGGCCGGTTGCCTGGCAACCGCAGGAG",
    "system-under-test": "RUNX1 (UniProt Q01196)",
    "RUNX1 binding intensity": 3790
  },
  {
    "chain": "TTCTATCCTGCCTTGCATGTCTTTAACCACACTGAG",
    "system-under-test": "RUNX1 (UniProt Q01196)",
    "RUNX1 binding intensity": 1720
  },
  {
    "chain": "CTCAGGAATGCGGAAGTGCTCTGTGGGCACCCACCA",
    "system-under-test": "RUNX1 (UniProt Q01196)",
    "RUNX1 binding intensity": 1560
  },
  {
    "chain": "TTCAGGTGACTTCCGGCCGGACCGCTGAGGACGCGG",
    "system-under-test": "RUNX1 (UniProt Q01196)",
    "RUNX1 binding intensity": 1630
  },
  {
    "chain": "AGTGTCCGCCGCTTCCTGGTTGCGGGTCAGCGCCCA",
    "system-under-test": "RUNX1 (UniProt Q01196)",
    "RUNX1 binding intensity": 2690
  },
  {
    "chain": "TTGCTCCCGGAAGCCCCGCCCGACCGCGGCTCCTGA",
    "system-under-test": "RUNX1 (UniProt Q01196)",
    "RUNX1 binding intensity": 1210
  },
  {
    "chain": "CTCACAGCAGCCCCAGGAAACCACCTCTTCCTTCAG",
    "system-under-test": "RUNX1 (UniProt Q01196)",
    "RUNX1 binding intensity": 1030
  },
  {
    "chain": "AAATCACATACCCGGAAACCACATGCACAGAAGTGG",
    "system-under-test": "RUNX1 (UniProt Q01196)",
    "RUNX1 binding intensity": 2090
  },
  {
    "chain": "GCAACTGAACAGGAAACTAAAAAACCACAACACTTA",
    "system-under-test": "RUNX1 (UniProt Q01196)",
    "RUNX1 binding intensity": 7890
  },
  {
    "chain": "TTTCTGACTTCCTGTGTGCTTCAGAAACCTCAATGA",
    "system-under-test": "RUNX1 (UniProt Q01196)",
    "RUNX1 binding intensity": 2110
  },
  {
    "chain": "CCTGCCTGAGGCAGGAAGCCGCAGCTGAGGGACGGC",
    "system-under-test": "RUNX1 (UniProt Q01196)",
    "RUNX1 binding intensity": 1280
  },
  {
    "chain": "GTTCCTTTGAAAGCAGGATGTGGTTTGCCCCAGCTT",
    "system-under-test": "RUNX1 (UniProt Q01196)",
    "RUNX1 binding intensity": 3730
  }
]

Data provenance is the supplement of paper PMC10681739.
